EXPERIMENTAL_SYSTEM: human Farnesoid X receptor ligand-binding domain/Gal4 DNA binding domain chimera (Homo sapiens (Human))
Sequence (Q96RI1 262-486, change not shown): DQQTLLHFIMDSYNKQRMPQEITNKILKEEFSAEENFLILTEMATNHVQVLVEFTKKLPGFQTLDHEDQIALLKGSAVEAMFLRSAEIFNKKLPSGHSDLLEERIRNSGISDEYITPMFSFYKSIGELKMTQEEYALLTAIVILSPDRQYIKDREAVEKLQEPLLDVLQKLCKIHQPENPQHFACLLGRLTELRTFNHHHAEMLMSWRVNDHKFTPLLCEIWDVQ
Sequence (P04386 1-147 partner): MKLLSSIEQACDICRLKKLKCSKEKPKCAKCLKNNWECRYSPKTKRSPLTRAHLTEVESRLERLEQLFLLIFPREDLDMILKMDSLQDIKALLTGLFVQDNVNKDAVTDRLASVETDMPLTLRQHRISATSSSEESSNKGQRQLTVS
ASSAY_EXPLANATION: Cell-based assay of FXR activation (FXR-UAS-bla HEK 293T beta-lactamase reporter)
MEASUREMENT_SETUP: HEK-293T; extent of activation relative to GW4064; cellular FXR beta-lactamase reporter assay; read-out: % Efficacy
The entries below are paired with their reported Emax.
State just the number; it will be interpreted in %.

Take a look at these entries with their results.
Emax recorded for this compound, O=C(O)c1ccc(N2C(=O)[C@@H]3C[C@H]2C[C@H]3OCc2c(-c3c(Cl)cccc3Cl)noc2C2CC2)cc1F [Compound I-314] , is 103

Form field Emax, entry O=C(O)c1ccc(N2C[C@@H]3C[C@H]2C[C@H]3OCc2c(-c3c(Cl)cccc3Cl)noc2C2(F)CC2)c(F)c1 [Compound I-57] : 109

So, O=C(O)c1cc(O[C@H]2CCOC2)c2nc(N3C(=O)[C@@H]4C[C@H]3C[C@H]4OCc3c(-c4c(Cl)cccc4Cl)noc3C3CC3)sc2c1 [Compound I-302] ? Its Emax was 114

So for O=C(O)c1cc(C2CC2)c2nc(N3C[C@@H]4C[C@H]3C[C@H]4OC(=O)c3c(-c4c(Cl)cccc4Cl)noc3C3CC3)sc2c1 [Compound I-4] , the logged Emax turned out to be 112

Continuing:
So for O=C(O)c1ccc(N2C[C@@H]3C[C@H]2C[C@H]3OCc2c(-c3c(Cl)cccc3Cl)noc2C2CC2)cn1 [Compound I-128] , the logged Emax turned out to be 93

---

Items are presented alongside their recorded pEC50.
EXPERIMENTAL_SYSTEM: ligand binding domain of human FXR (Homo sapiens (Human))
ASSAY_EXPLANATION: FXR ligand binding assay (LanthaScreen TR-FRET, SRC2-2 peptide recruitment)
MEASUREMENT_SETUP: -log EC50, concentration required to produce 50% activation
Form field (numeric): enter value without unit.

Answered examples (2):
The compound listed as `O=C(O)c1cc(F)c2nc(N3C[C@@H]4C[C@H]3C[C@H]4OCc3c(C4CCC5(CC4)CC5)noc3C3CC3)sc2c1` shows pEC50 equal to 8.1

Notebook: `O=C(O)c1cc([C@@H]2CCOC2)c2nc(N3C[C@@H]4C[C@H]3C[C@H]4OCc3c(C4CCC5(CC4)CC5)noc3C3CC3)sc2c1` , pEC50 read as 7.4

More entries:
So for `O=C(NS(=O)(=O)C1CCOCC1)c1ccc(N2C(=O)[C@@H]3C[C@H]2C[C@H]3OCc2c(-c3c(Cl)cccc3Cl)noc2C2CC2)cn1` , the logged pEC50 turned out to be 8

Input `O=C(O)c1cc(F)c2nc(N3C[C@@H]4C[C@H]3C[C@H]4OC(=O)c3c(C45CCC(CC4)CC5)noc3C3CC3)sc2c1` . Output pEC50: 7.7

Briefly, pEC50 measured for O=C(NS(=O)(=O)C1CCOC1)c1ccc(N2C(=O)[C@@H]3C[C@H]2C[C@H]3OCc2c(-c3c(Cl)cccc3Cl)noc2C2CC2)cc1F (stereo partly drawn) : 9

pEC50 reading for `O=C(O)c1cc([C@H]2C[C@H]3CC[C@@H](C2)O3)c2nc(N3C[C@@H]4C[C@H]3C[C@H]4OCc3c(-c4c(Cl)cccc4Cl)noc3C3CC3)sc2c1` : 8.4

Entry `Cc1cccc(Cl)c1-c1noc(C2CC2)c1CO[C@@H]1C[C@@H]2C[C@H]1CN2c1ccc(CCC(=O)NS(=O)(=O)C2CCOCC2)cc1F` — recorded pEC50 = 8.4

For record `O=C(O[C@@H]1C[C@@H]2C[C@H]1CN2c1ccc(-c2nn[nH]n2)cc1)c1c(-c2c(Cl)cccc2Cl)noc1C1CC1` the listed pEC50 is 6.8

# compound `O=C(CCc1ccc(N2C[C@@H]3C[C@H]2C[C@H]3OCc2c(-c3c(F)cccc3Cl)noc2C2CC2)c(F)c1)NS(=O)(=O)C1CCOCC1` ; its pEC50 = 8.2

// pEC50 lookup, compound = `O=C(NS(=O)(=O)C1CC1)c1cc(F)c2nc(N3C[C@@H]4C[C@H]3C[C@H]4OCc3c(-c4c(Cl)cccc4Cl)noc3C3CC3)sc2c1` , result: 8.6

The compound `O=C(NS(=O)(=O)[C@H]1CC[C@@H](O)CC1)c1ccc(N2C[C@@H]3C[C@H]2C[C@H]3OCc2c(-c3c(Cl)cccc3Cl)noc2C2CC2)cc1` showed pEC50 equal to 8.7

Input `O=C(NS(=O)(=O)CCCCCCCCCCNC(=O)[C@H](O)[C@@H](O)[C@H](O)[C@H](O)CO)c1ccc(N2C[C@@H]3C[C@H]2C[C@H]3OCc2c(-c3c(Cl)cccc3Cl)noc2C2CC2)c(F)c1` . Output pEC50: 8.6

Sample `C[C@@H]1[C@@H]2C[C@@H](C[C@H]2OCc2c(-c3c(Cl)cccc3Cl)noc2C2CC2)N1c1ccc(C(=O)O)c(F)c1` ; pEC50 observed: 7.2

Item: `CCCS(=O)(=O)NC(=O)c1ccc(N2C[C@@H]3C[C@H]2C[C@H]3OCc2c(-c3c(Cl)cccc3Cl)noc2C2CC2)cc1` | pEC50: 8.2

Form: compound = `CC(C)C(=O)OCCS(=O)(=O)NC(=O)c1ccc(N2C[C@@H]3C[C@H]2C[C@H]3OCc2c(-c3c(Cl)cccc3Cl)noc2C2CC2)cc1` ; pEC50 = 9.4

So, `O=C(NS(=O)(=O)C1CC1)c1ccc(N2C[C@@H]3C[C@H]2C[C@H]3OCc2c(C3CCC4(CC3)CC4)noc2C2CC2)cc1` ? Its pEC50 was 7

Measured pEC50 of `O=C(NS(=O)(=O)C1CC1)c1ncc(N2C(=O)[C@@H]3C[C@H]2C[C@H]3OCc2c(-c3c(Cl)cccc3Cl)noc2C2CC2)cc1F` : 7.9

// `CCCS(=O)(=O)NC(=O)c1ccc(N2C[C@@H]3C[C@H]2C[C@H]3OCc2c(-c3c(Cl)cccc3Cl)noc2C2CC2)c(F)c1` : pEC50 value = 8.7

Lab book: pEC50 of `O=C(O)c1ccc(N2C[C@@H]3C[C@H]2C[C@H]3OCc2c(-c3c(Cl)cccc3Cl)noc2C2CC2)c(F)c1` noted as 8.7
